From: patent WO2009138494A2

biological target: T1, recombinant human TLR3, R&D Systems cat no: 1487-TR (human, UniProt O15455 27-700, limits assumed); test: ELISA: TLR coated at 2 ug/ml, periplasmic extract of the clone, anti-VHH detection, OD against no-Nanobody control
T1 construct: Bought protein, coated on ELISA plates; also called hTLR3
ASSAY ENDPOINT: binding result

The recorded binding result for 132-E10 (VHH, not shown: C-terminal c-myc tag and (His)6 tag coded by the vector) VHH: EVQLVESGGGLVQAGGSLRLSCAASGNTFSINVMGWYRQAPGKQRELVTIIDNGGTTSYADSVKGRFTISRDNAKNTVYLQMNSLKPEDTARYTCHARRGGTLYTLGDSNYWGQGTQVTVSS is binds

The recorded binding result for 132-B12 (VHH, not shown: C-terminal c-myc tag and (His)6 tag coded by the vector) VHH: EVQLVESGGGLVQAGGSLRLSCAASGNTFSINVMGWYRQAPGKQRELVTIMDDSGTTNYAGSVKGRFTISRDNAKNTVYLQMSSLKPEDTARYFCHARRGGTAYTLGDSNYWGQGTQVTVSS is binds
